# pIC50 per entry
# target-of-assay: human TLR8 (Homo sapiens, UniProt Q9NR97)
# Sequence (Q9NR97 27-1041): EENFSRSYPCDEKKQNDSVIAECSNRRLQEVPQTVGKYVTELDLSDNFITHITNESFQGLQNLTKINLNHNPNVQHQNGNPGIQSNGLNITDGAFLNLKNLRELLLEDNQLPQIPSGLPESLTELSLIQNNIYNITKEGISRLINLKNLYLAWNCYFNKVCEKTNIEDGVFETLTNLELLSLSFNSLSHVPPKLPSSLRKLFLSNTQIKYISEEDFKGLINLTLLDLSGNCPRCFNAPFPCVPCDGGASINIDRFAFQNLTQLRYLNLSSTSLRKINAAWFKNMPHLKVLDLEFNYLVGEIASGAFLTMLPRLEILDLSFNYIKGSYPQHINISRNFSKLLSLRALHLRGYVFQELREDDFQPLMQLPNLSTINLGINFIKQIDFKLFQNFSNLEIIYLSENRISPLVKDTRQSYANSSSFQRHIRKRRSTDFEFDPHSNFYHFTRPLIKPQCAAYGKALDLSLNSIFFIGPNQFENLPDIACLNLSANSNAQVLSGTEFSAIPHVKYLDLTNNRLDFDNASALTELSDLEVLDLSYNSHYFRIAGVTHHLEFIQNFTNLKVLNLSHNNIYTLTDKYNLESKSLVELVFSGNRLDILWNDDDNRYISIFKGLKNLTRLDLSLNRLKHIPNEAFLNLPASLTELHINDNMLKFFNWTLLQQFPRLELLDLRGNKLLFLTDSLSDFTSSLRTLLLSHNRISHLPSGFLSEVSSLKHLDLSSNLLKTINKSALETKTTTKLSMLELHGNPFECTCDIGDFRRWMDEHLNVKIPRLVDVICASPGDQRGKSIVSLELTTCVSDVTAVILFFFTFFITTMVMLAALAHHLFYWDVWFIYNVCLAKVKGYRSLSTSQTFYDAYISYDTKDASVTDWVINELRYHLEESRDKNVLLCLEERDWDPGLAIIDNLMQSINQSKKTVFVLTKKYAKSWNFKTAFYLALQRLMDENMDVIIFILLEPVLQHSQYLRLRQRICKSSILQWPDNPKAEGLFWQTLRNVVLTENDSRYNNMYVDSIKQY
# assay-text: TLR8 inhibition reporter assay (HEK-Blue cells, secreted embryonic alkaline phosphatase reporter)
# condition: HEK-Blue cells overexpressing human TLR8, stimulated with R848 15.9 μM; read-out: TLR 8 IC50
pIC50: −log10 of the molar value.

{"columns": ["compound", "target-of-assay", "pIC50"],
 "data": [
  ["COCCN1C2CCC1CC(N1CCC(c3cc(C)c4nc(-c5ccc(OC)c(OC)c5)n(C)c4c3)CC1)C2 (single isomer, unassigned) [Example 168]", "human TLR8 (Homo sapiens, UniProt Q9NR97)", "< 4.60"]
]}

Bench note: what pIC50 did CS(=O)(=O)c1ccc(-c2nc3ccc(C4CCN(C5CCN(CC6CC6)CC5)CC4)c(F)c3[nH]2)cc1 show? < 4.30

---

# target-of-assay: human TLR7 (Homo sapiens, UniProt Q9NYK1)
# Construct: host or cells: HEK-Blue cells (HEK293-derived reporter line)
# assay-text: TLR7 inhibition reporter assay (HEK-Blue cells, secreted embryonic alkaline phosphatase reporter)
# Format: cell-based
# condition: HEK-Blue cells overexpressing human TLR7, stimulated with gardiquimod 7.5 μM; read-out: TLR 7 IC50
readout-kind: IC50 (µM)

{"columns": ["compound", "IC50 [µM]"],
 "data": [
  ["Cn1c(-c2ccc(S(C)(=O)=O)cc2)nc2cc(F)c(C3CCN(C4CCN(CC5CC5)CC4)CC3)cc21 [Example 224]", 25.7]
]}

1. Cn1c(-c2ccc(S(C)(=O)=O)cc2)nc2c(F)cc(C3CCN(C4CC5CCC(C4)N5C4CCOCC4)CC3)cc21 (single isomer, unassigned) [Example 289]
2. CCN(C)C1CCN(c2ccc(-c3cc(C)c4nc(-c5ccc(S(C)(=O)=O)cc5)n(C)c4c3)cc2)CC1 [Example 386]
Field: lower IC50 | Options: 1 / 2 Mark your answer with the label of the selected entry. 2

A. COc1ccc(-c2nc3c(C)cc(C4CCN(C5CCN(CC(C)C)CC5)CC4)cc3[nH]2)cc1OC [Example 43, tris(2,2,2-trifluoroacetate)]
B. COCCN1CCC(N2CCC(c3cc4c(cc3F)nc(-c3ccc(S(C)(=O)=O)cc3)n4C)CC2)CC1 [Example 227]
Smaller IC50 value, A vs B ? State your choice using its label. A

---

# target-of-assay: human TLR7 (Homo sapiens)
# Sequence (Q9NYK1 27-1049): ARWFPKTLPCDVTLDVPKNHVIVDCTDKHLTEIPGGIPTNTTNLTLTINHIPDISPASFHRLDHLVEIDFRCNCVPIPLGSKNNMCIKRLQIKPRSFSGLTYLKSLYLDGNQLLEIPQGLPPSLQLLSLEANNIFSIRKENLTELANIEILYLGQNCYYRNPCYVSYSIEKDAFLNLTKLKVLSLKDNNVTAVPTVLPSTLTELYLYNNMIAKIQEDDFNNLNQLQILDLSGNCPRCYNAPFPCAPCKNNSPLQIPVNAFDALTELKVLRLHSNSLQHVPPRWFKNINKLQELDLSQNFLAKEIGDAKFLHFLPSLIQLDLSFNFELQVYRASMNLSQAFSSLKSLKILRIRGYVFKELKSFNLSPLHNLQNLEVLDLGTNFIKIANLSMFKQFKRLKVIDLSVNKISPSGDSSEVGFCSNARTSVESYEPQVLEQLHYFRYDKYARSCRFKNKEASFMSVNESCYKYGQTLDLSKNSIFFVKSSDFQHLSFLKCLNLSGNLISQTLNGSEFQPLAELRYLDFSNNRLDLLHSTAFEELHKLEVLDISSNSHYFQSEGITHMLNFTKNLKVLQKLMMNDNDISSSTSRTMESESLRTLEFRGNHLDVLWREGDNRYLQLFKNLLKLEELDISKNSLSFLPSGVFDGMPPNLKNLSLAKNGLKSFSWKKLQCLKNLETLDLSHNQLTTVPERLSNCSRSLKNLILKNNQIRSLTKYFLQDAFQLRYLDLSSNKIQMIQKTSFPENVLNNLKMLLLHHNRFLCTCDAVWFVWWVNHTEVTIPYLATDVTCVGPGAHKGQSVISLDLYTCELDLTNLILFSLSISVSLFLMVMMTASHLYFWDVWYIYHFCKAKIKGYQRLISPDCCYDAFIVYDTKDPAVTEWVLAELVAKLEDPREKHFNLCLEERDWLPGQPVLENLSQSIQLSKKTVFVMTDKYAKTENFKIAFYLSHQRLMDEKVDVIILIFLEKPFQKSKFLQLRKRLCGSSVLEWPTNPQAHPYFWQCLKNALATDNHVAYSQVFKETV
# assay-text: TLR7 inhibition reporter assay (HEK-Blue cells, secreted embryonic alkaline phosphatase reporter)
# condition: HEK-Blue cells overexpressing human TLR7, stimulated with gardiquimod 7.5 μM; read-out: TLR 7 IC50
readout-kind: IC50 (µM)

Some compounds with known IC50 results, for comparison:
{"columns": ["compound", "IC50 [µM]"],
 "data": [
  ["CC(C)N1C2CCC1CC(N1CCC(c3ccc4nc(-c5ccc(S(C)(=O)=O)cc5)n(C)c4c3F)CC1)C2 (single isomer, unassigned) [Example 104]", 39.2],
  ["Cn1c(-c2ccc(S(C)(=O)=O)cc2)nc2ccc(C3CCN(C4CC5CCC(C4)N5CC4CC4)CC3)c(F)c21 (stereo not drawn) [Example 269]", 12],
  ["COCCN1CCC(N2CCC(c3cc4nc(-c5ccc(S(C)(=O)=O)cc5)n(C)c4cc3F)CC2)CC1", 26.2],
  ["COCCN1C2CCC1CC(N1CCC(c3cc(F)c4nc(-c5ccc(S(C)(=O)=O)cc5)n(C)c4c3)CC1)C2 (single isomer, unassigned) [Example 291]", 1.8]
]}

A. COCCN1CCCC(N2CCC(c3cc(F)c4nc(-c5ccc(S(C)(=O)=O)cc5)n(C)c4c3)CC2)CC1 (single isomer, unassigned) [Example 302]
B. Cn1c(-c2ccc(S(C)(=O)=O)cc2)nc2c(F)cc(C3CCN(C4CCCN(C5CCOCC5)CC4)CC3)cc21 (stereo not drawn) [Example 301]
Form field 'greater IC50' accepts A or B ; which applies? // return label of chosen record B
(B: 3.1 µM, A: 1.9 µM)

Cited source for all entries: patent US12492188B2
